Cited source: paper PMC9779606

Kindly state MIC for each of the entries shown.
System: S. aureus 585
Experiment: MIC, hospital methicillin-resistant strains (MRSA)
Settings: hospital MRSA strain S. aureus 585
Quick note: number first, unit second.

Below are worked cases with known answers.
molecule	MIC
FC(F)(F)c1cccc([N-]C(=S)NCc2ccccc2)c1.FC(F)(F)c1cccc([N-]C(=S)NCc2ccccc2)c1.[Cu+2]	64 µg/mL
CC(NC(=S)[N-]c1cccc(C(F)(F)F)c1)c1ccccc1.CC(NC(=S)[N-]c1cccc(C(F)(F)F)c1)c1ccccc1.[Cu+2] (racemic)	8 µg/mL
FC(F)(F)c1cccc([N-]C(=S)Nc2cccc(Br)c2)c1.FC(F)(F)c1cccc([N-]C(=S)Nc2cccc(Br)c2)c1.[Cu+2]	8 µg/mL
O.O=[N+]([O-])c1cc(NC(=S)[N-]c2cccc(C(F)(F)F)c2)ccc1Cl.O=[N+]([O-])c1cc(NC(=S)[N-]c2cccc(C(F)(F)F)c2)ccc1Cl.[Cu+2]	4 µg/mL

Form: molecule = "FC(F)(F)c1cccc([N-]C(=S)NCCc2ccccc2)c1.FC(F)(F)c1cccc([N-]C(=S)NCCc2ccccc2)c1.O.[Cu+2]" ; MIC = 64 µg/mL
